# Protocol notes: Water solubility at pH 7.4
# Assay type: physicochemical
# Run parameters: pH 7.4, water
solubility values, listed per item

{"Compound": "CC1CCC2C(C)C(C(=O)O)OC3OC4(C)CCC1C32OO4 (stereo not drawn) [Monomer 33]", "Unit": "mM", "Readout qualifier": "=", "solubility": 30}
{"Compound": "C[C@H]1[C@H](c2ccc(O)cc2O)O[C@@H]2O[C@@]3(C)CC[C@H]4[C@H](C)CC[C@@H]1[C@@]24OO3 [Monomer 13d]", "Unit": "mM", "Readout qualifier": "<", "solubility": 3}
{"Compound": "CC1CCC2C(C)C(c3cccn3CC(=O)O)OC3OC4(C)CCC1C32OO4 (stereo not drawn) [Monomer 16e]", "Unit": "mM", "Readout qualifier": "=", "solubility": 10}
